test: Plasma pharmacokinetics of DMT and DMT N-oxide after IN or SC DMT (LC-QQQ-MS, non-compartmental analysis); type: in vivo, male Sprague-Dawley rats; settings: male, Sprague-Dawley, rat, plasma, sc, 3 mg/kg, plasma DMT, 3 mg/kg SC, mean ± SEM, n = 5 rats; read-out: Cmax
measure-name: Cmax (ng/mL)
Give bare numbers, in ng/mL.

# compound `CN(C)CCc1c[nH]c2ccccc12` ; its Cmax = 35.8

---

Test: Plasma pharmacokinetics of DMT and DMT N-oxide after IN or SC DMT (LC-QQQ-MS, non-compartmental analysis)
Format: in vivo, male Sprague-Dawley rats
Conditions: male, Sprague-Dawley, rat; plasma DMT, 10 mg/kg SC, mean ± SEM, n = 5 rats
Procedure: For the IN DMT experiments, blood samples (300 µL) were withdrawn via IV catheters immediately before (time zero) and at 5, 10, 20, 40, and 80 min after injection. For the SC DMT experiments, blood samples were withdrawn immediately before (time zero) and at 10, 20, 40, 80, and 160 min after injection. […] Samples were extracted using a basic solid phase extraction (SPE) procedure. […] Quality controls were assessed at 15, 60, 150, and 800 ng/mL. […]
measure-name: AUC (ng·h/mL)
Give bare numbers, in ng·h/mL.

# molecule `CN(C)CCc1c[nH]c2ccccc12` ; its AUC = 158

---

Test: Plasma pharmacokinetics of DMT and DMT N-oxide after IN or SC DMT (LC-QQQ-MS, non-compartmental analysis)
Type: in vivo, male Sprague-Dawley rats
Conditions: male, Sprague-Dawley, rat, inhaled or intranasal; plasma DMT, 1 mg/kg IN, mean ± SEM, n = 5 rats
Description: For the IN DMT experiments, blood samples (300 µL) were withdrawn via IV catheters immediately before (time zero) and at 5, 10, 20, 40, and 80 min after injection. For the SC DMT experiments, blood samples were withdrawn immediately before (time zero) and at 10, 20, 40, 80, and 160 min after injection. […] Samples were extracted using a basic solid phase extraction (SPE) procedure. […] Quality controls were assessed at 15, 60, 150, and 800 ng/mL. […]
measure-name: Tmax (min)
Numbers only, in min.

# compound `CN(C)CCc1c[nH]c2ccccc12` ; its Tmax = 5

---

assay: Plasma pharmacokinetics of DMT and DMT N-oxide after IN or SC DMT (LC-QQQ-MS, non-compartmental analysis); type: in vivo, male Sprague-Dawley rats; conditions: male, Sprague-Dawley, rat, plasma, sc, 1 mg/kg, plasma DMT, 1 mg/kg SC, mean ± SEM, n = 5 rats; read-out: Cmax
measure-name: Cmax (ng/mL)
Answers are plain numbers, in ng/mL.

# compound `CN(C)CCc1c[nH]c2ccccc12` ; its Cmax = 19.6

---

experiment: Plasma pharmacokinetics of DMT and DMT N-oxide after IN or SC DMT (LC-QQQ-MS, non-compartmental analysis); assay type: in vivo, male Sprague-Dawley rats; conditions: male, Sprague-Dawley, rat, plasma, inhaled or intranasal, 10 mg/kg, plasma DMT, 10 mg/kg IN, mean ± SEM, n = 5 rats; read-out: Cmax
measure-name: Cmax (ng/mL)
Numbers only, in ng/mL.

# compound `CN(C)CCc1c[nH]c2ccccc12` ; its Cmax = 268

---

assay: Plasma pharmacokinetics of DMT and DMT N-oxide after IN or SC DMT (LC-QQQ-MS, non-compartmental analysis); type: in vivo, male Sprague-Dawley rats; conditions: male, Sprague-Dawley, rat; plasma DMT, 1 mg/kg SC, mean ± SEM, n = 5 rats
measure-name: AUC (ng·h/mL)
Numbers only, in ng·h/mL.

# compound CN(C)CCc1c[nH]c2ccccc12 [DMT, N,N-dimethyltryptamine] ; its AUC = 16.4

---

test: Plasma pharmacokinetics of DMT and DMT N-oxide after IN or SC DMT (LC-QQQ-MS, non-compartmental analysis); assay type: in vivo, male Sprague-Dawley rats; conditions: male, Sprague-Dawley, rat, inhaled or intranasal; plasma DMT, 10 mg/kg IN, mean ± SEM, n = 5 rats
measure-name: AUC (ng·h/mL)
Give bare numbers, in ng·h/mL.

# molecule `CN(C)CCc1c[nH]c2ccccc12` ; its AUC = 93.8

---

assay: Plasma pharmacokinetics of DMT and DMT N-oxide after IN or SC DMT (LC-QQQ-MS, non-compartmental analysis); assay type: in vivo, male Sprague-Dawley rats; conditions: male, Sprague-Dawley, rat, plasma, inhaled or intranasal, 3 mg/kg, plasma DMT, 3 mg/kg IN, mean ± SEM, n = 5 rats; read-out: t1/2
measure-name: half-life

# molecule `CN(C)CCc1c[nH]c2ccccc12` ; its half-life = 14.3 min

---

Test: Plasma pharmacokinetics of DMT and DMT N-oxide after IN or SC DMT (LC-QQQ-MS, non-compartmental analysis)
Format: in vivo, male Sprague-Dawley rats
Details: male, Sprague-Dawley, rat, plasma, sc, 10 mg/kg, plasma DMT, 10 mg/kg SC, mean ± SEM, n = 5 rats; read-out: t1/2
Experimental: For the IN DMT experiments, blood samples (300 µL) were withdrawn via IV catheters immediately before (time zero) and at 5, 10, 20, 40, and 80 min after injection. For the SC DMT experiments, blood samples were withdrawn immediately before (time zero) and at 10, 20, 40, 80, and 160 min after injection. […] Samples were extracted using a basic solid phase extraction (SPE) procedure. […] Quality controls were assessed at 15, 60, 150, and 800 ng/mL. […]
measure-name: half-life

# compound `CN(C)CCc1c[nH]c2ccccc12` ; its half-life = 2.04 h

---

assay: Plasma pharmacokinetics of DMT and DMT N-oxide after IN or SC DMT (LC-QQQ-MS, non-compartmental analysis); format: in vivo, male Sprague-Dawley rats; conditions: male, Sprague-Dawley, rat, plasma, sc, 10 mg/kg, plasma DMT, 10 mg/kg SC, mean ± SEM, n = 5 rats; read-out: Cmax
measure-name: Cmax (ng/mL)
One number for each entry, in ng/mL.

# compound CN(C)CCc1c[nH]c2ccccc12 [DMT, N,N-dimethyltryptamine] ; its Cmax = 81.6

---

assay: Plasma pharmacokinetics of DMT and DMT N-oxide after IN or SC DMT (LC-QQQ-MS, non-compartmental analysis); format: in vivo, male Sprague-Dawley rats; details: male, Sprague-Dawley, rat, inhaled or intranasal; plasma DMT, 1 mg/kg IN, mean ± SEM, n = 5 rats
measure-name: AUC (ng·h/mL)
One number for each entry, in ng·h/mL.

# compound `CN(C)CCc1c[nH]c2ccccc12` ; its AUC = 6.08

---

test: Plasma pharmacokinetics of DMT and DMT N-oxide after IN or SC DMT (LC-QQQ-MS, non-compartmental analysis); type: in vivo, male Sprague-Dawley rats; settings: male, Sprague-Dawley, rat; plasma DMT, 3 mg/kg SC, mean ± SEM, n = 5 rats
measure-name: AUC (ng·h/mL)
Give bare numbers, in ng·h/mL.

# compound `CN(C)CCc1c[nH]c2ccccc12` ; its AUC = 47.7

---

Assay: Plasma pharmacokinetics of DMT and DMT N-oxide after IN or SC DMT (LC-QQQ-MS, non-compartmental analysis)
Type: in vivo, male Sprague-Dawley rats
Conditions: male, Sprague-Dawley, rat, plasma, other: IN (intranasal, infused into the nares), 3 mg/kg, plasma DMT, low IN doses (1 and 3 mg/kg); read-out: maximal DMT concentrations (Cmax) after low IN doses
Experimental: For the IN DMT experiments, blood samples (300 µL) were withdrawn via IV catheters immediately before (time zero) and at 5, 10, 20, 40, and 80 min after injection. For the SC DMT experiments, blood samples were withdrawn immediately before (time zero) and at 10, 20, 40, 80, and 160 min after injection. […] Samples were extracted using a basic solid phase extraction (SPE) procedure. […] Quality controls were assessed at 15, 60, 150, and 800 ng/mL. […]
measure-name: Cmax

# molecule `CN(C)CCc1c[nH]c2ccccc12` ; its Cmax = 0.0302 to 0.0556 µg/mL

---

Assay: Plasma pharmacokinetics of DMT and DMT N-oxide after IN or SC DMT (LC-QQQ-MS, non-compartmental analysis)
Assay type: in vivo, male Sprague-Dawley rats
Conditions: male, Sprague-Dawley, rat, inhaled or intranasal; plasma DMT, 3 mg/kg IN, mean ± SEM, n = 5 rats
Experimental: For the IN DMT experiments, blood samples (300 µL) were withdrawn via IV catheters immediately before (time zero) and at 5, 10, 20, 40, and 80 min after injection. For the SC DMT experiments, blood samples were withdrawn immediately before (time zero) and at 10, 20, 40, 80, and 160 min after injection. […] Samples were extracted using a basic solid phase extraction (SPE) procedure. […] Quality controls were assessed at 15, 60, 150, and 800 ng/mL. […]
measure-name: Tmax (min)
Numbers only, in min.

# compound `CN(C)CCc1c[nH]c2ccccc12` ; its Tmax = 6

---

assay: Plasma pharmacokinetics of DMT and DMT N-oxide after IN or SC DMT (LC-QQQ-MS, non-compartmental analysis); format: in vivo, male Sprague-Dawley rats; conditions: male, Sprague-Dawley, rat, inhaled or intranasal; plasma DMT, 3 mg/kg IN, mean ± SEM, n = 5 rats
measure-name: AUC

# compound CN(C)CCc1c[nH]c2ccccc12 [DMT, N,N-dimethyltryptamine] ; its AUC = 14.9 ng·h/mL
